src = the supplement of paper PMC12338614

B1: library; numbered along this chain (parent)
chain: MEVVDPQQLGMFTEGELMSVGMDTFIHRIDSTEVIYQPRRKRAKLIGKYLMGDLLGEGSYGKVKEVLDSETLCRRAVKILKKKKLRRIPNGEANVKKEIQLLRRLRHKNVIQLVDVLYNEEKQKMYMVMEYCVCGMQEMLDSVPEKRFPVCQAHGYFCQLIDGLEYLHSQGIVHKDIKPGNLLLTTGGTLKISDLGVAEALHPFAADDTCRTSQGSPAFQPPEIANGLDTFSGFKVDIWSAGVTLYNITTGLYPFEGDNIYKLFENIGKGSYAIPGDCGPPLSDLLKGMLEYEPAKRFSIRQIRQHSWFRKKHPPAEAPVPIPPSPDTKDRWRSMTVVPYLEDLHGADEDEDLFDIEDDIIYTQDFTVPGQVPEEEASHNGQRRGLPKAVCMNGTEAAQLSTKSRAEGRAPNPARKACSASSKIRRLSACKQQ

# Variants of: B1
# PROCEDURE_DETAILS: STK11 functional score (HeLa growth suppression), rescaled enrichment; synonymous median = 1, nonsense median = 0 (normalised score)
# CONDITION_PARAMETERS: with HeLa; variant type: missense
MEASURED_PROPERTY: STK11 functional score

1) L386R :: 1.43
2) S142I :: 0.895
3) K235P :: 1.65
4) P324V :: 1.58
5) P315S :: 1.41
6) V150G :: 0.594
7) A93G :: 0.685
8) I224R :: 1.04
9) I29H :: 0.0412
10) W239S :: 0.00373
11) L400F :: 1.46
12) Y166S :: 0.964
13) I172W :: 0.519
14) L344R :: 1.46
15) I424M :: 1.42
16) Y36I :: 1.03
17) A93R :: 1.6
18) C418M :: 1.54
19) A76M :: -0.216
20) D359H :: 1.21
21) V110D :: 0.338
22) C418T :: 1.58
23) Q100D :: 1.57
24) F157L :: 0.19
25) T189L :: 1.24
26) D327T :: 1.6
27) Q7D :: 1.33
28) K44A :: 1.57
29) T395G :: 1.49
30) E291N :: 0.978
31) C132P :: -0.178
32) G215S :: 1.11
33) P324M :: 0.794
34) S378F :: 1.41
35) N226I :: 0.495
36) C134E :: 1.45
37) A295G :: 1.37
38) M125G :: 1.03
39) V173Q :: 1.46
40) Q100A :: 0.571
41) V4F :: 0.964
42) V20G :: 1.43
43) I300R :: -0.144
44) S422I :: 1.3
45) L427N :: 1.63
46) P315M :: 1.6
47) E291L :: 0.796
48) Q399T :: 1.29
49) V236C :: 1.44
50) P324K :: 0.708
51) D343M :: 1.57
52) G257R :: 0.694
53) G242E :: 0.274
54) Y60N :: 0.674
55) Y126M :: 0.654
56) R86E :: 1.6
57) V338L :: 1.39
58) S428W :: 1.62
59) E165Y :: 1.24
60) S169L :: 0.7
61) T71F :: 1.17
62) R409T :: 1.47
63) P38D :: 1.7
64) R384P :: 1.56
65) L290D :: -0.275
66) R39W :: 1.22
67) F255H :: 0.97
68) E199P :: 0.87
69) V34S :: 1.29
70) V390P :: 1.52
71) P323G :: 1.13
72) D284W :: 0.576
73) P321R :: 1.26
74) I322Y :: 0.925
75) N94P :: 1.21
76) L105G :: 0.712
77) S232G :: 0.97
78) T230E :: 1.65
79) L17Y :: 1.6
80) Q170M :: 1.54
81) S69W :: 0.118
82) R103L :: 0.918
83) K48S :: 1.37
